# tested.system: androgen receptor (AR) splicing variant AR-v7 (Homo sapiens, UniProt P10275)
# Construct: The degradation activity of compounds on AR-v7 in 22RV1 cells; host or cells: 22RV1 cells
# Sequence (P10275 1-644 isoform P10275-3): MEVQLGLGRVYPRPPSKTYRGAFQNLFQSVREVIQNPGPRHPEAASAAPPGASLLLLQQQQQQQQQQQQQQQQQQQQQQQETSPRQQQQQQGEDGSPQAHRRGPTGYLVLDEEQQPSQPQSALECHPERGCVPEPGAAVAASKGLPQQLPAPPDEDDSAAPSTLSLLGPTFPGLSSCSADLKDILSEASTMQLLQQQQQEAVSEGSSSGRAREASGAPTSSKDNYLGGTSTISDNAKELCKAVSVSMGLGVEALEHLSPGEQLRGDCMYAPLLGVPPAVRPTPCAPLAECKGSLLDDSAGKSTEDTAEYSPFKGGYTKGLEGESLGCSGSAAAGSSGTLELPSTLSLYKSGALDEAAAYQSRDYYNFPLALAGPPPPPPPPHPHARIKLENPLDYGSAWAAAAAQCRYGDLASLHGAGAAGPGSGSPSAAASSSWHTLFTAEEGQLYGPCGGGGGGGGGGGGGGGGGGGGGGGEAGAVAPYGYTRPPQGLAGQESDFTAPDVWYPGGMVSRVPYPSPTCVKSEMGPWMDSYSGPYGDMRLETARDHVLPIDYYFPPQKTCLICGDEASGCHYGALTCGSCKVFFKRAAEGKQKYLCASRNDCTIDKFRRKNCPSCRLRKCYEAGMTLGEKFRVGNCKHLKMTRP
# test.name: Degradation activity on androgen receptor splicing variant AR-v7 in 22RV1 cells (ELISA)
# Format: cell-based
# condition.parameters: AR-v7 degradation in 22RV1 cells, 48 h, class symbols
DC50 overview

Some entries whose results are on file:
- compound: "Cc1noc(-c2ncc(Oc3ccc(C(C)(C)c4ccc(O[C@H]5C[C@@H](Nc6ccc7c(c6)C(=O)N(C6CCC(=O)NC6=O)C7=O)C5)cc4)cc3)cn2)n1 (some centres unmarked)"
  tested.system: "androgen receptor (AR) splicing variant AR-v7 (Homo sapiens, UniProt P10275)"
  recorded.metric: "DC50"
  recorded.value: "11 to 100 nM"
- compound: "NC(=O)c1noc(COc2ccc(C3(c4ccc(OCCCNc5ccc6c(c5)C(=O)N(C5CCC(=O)NC5=O)C6=O)cc4)CCC3)cc2)n1 (centres unmarked)"
  tested.system: "androgen receptor (AR) splicing variant AR-v7 (Homo sapiens, UniProt P10275)"
  recorded.metric: "DC50"
  recorded.value: "11 to 100 nM"
- compound: "C=CC(c1ccc(Oc2cnc(-n3nccn3)nc2)cc1)c1ccc(O[C@H]2C[C@H](Nc3ccc4c(c3)C(=O)N(C3CCC(=O)NC3=O)C4=O)C2)cc1 (some centres unmarked)"
  tested.system: "androgen receptor (AR) splicing variant AR-v7 (Homo sapiens, UniProt P10275)"
  recorded.metric: "DC50"
  recorded.value: "< 10 nM"
- compound: "CC(C)(c1ccc(OCc2ccnc(-n3ccnn3)n2)cc1)c1ccc(O[C@H]2C[C@@H](Nc3ccc4c(c3)C(=O)N(C3CCC(=O)NC3=O)C4=O)C2)cc1 (some centres unmarked)"
  tested.system: "androgen receptor (AR) splicing variant AR-v7 (Homo sapiens, UniProt P10275)"
  recorded.metric: "DC50"
  recorded.value: "< 10 nM"
- compound: "CC(C)(c1ccc(OCc2ccnc(NS(C)(=O)=O)n2)cc1)c1ccc(OC2CN(c3cccc4c3C(=O)N(C3CCC(=O)NC3=O)C4=O)C2)cc1 (centres unmarked)"
  tested.system: "androgen receptor (AR) splicing variant AR-v7 (Homo sapiens, UniProt P10275)"
  recorded.metric: "DC50"
  recorded.value: "101 to 1000 nM"
- compound: "COC(=O)c1ncc(Oc2ccc(C(C)(C)c3ccc(O[C@H]4C[C@H](Nc5ccc6c(c5)C(=O)N(C5CCC(=O)NC5=O)C6=O)C4)cc3)cc2)cn1 (some centres unmarked)"
  tested.system: "androgen receptor (AR) splicing variant AR-v7 (Homo sapiens, UniProt P10275)"
  recorded.metric: "DC50"
  recorded.value: "11 to 100 nM"
- compound: "C=CC(c1ccc(Oc2ccc(-c3noc(C)n3)nn2)cc1)c1ccc(O[C@H]2C[C@H](Nc3ccc4c(c3)C(=O)N(C3CCC(=O)NC3=O)C4=O)C2)cc1 (some centres unmarked)"
  tested.system: "androgen receptor (AR) splicing variant AR-v7 (Homo sapiens, UniProt P10275)"
  recorded.metric: "DC50"
  recorded.value: "< 10 nM"
- compound: "CC(C)(c1ccc(OCc2ccnc(N3CC4(COC4)C3)n2)cc1)c1ccc(OCC2(CNc3ccc4c(c3)C(=O)N(C3CCC(=O)NC3=O)C4=O)CC2)cc1 (centres unmarked)"
  tested.system: "androgen receptor (AR) splicing variant AR-v7 (Homo sapiens, UniProt P10275)"
  recorded.metric: "DC50"
  recorded.value: "101 to 1000 nM"

// DC50 lookup, compound = CC(C)(c1ccc(Oc2ccc(-n3cccn3)nc2)cc1)c1ccc(O[C@H]2C[C@H](Nc3ccc4c(c3)C(=O)N(C3CCC(=O)NC3=O)C4=O)C2)cc1 (some centres unmarked) , result: 11 to 100 nM

The compound identified as CC(C)(c1ccc(Oc2ccc(C#N)nn2)cc1)c1ccc(O[C@H]2C[C@H](Nc3ccc4c(c3)C(=O)N(C3CCC(=O)NC3=O)C4=O)C2)cc1 (some centres unmarked) registered its DC50 at < 10 nM

Field DC50 (entry CC(C)(c1ccc(OCc2ccnc(OC3CCOCC3)n2)cc1)c1ccc(O[C@H]2C[C@H](Nc3ccc4c(c3)C(=O)N(C3CCC(=O)NC3=O)C4=O)C2)cc1 (some centres unmarked) ) reads 11 to 100 nM

* * *

# tested.system: androgen receptor (AR) splicing variant AR-v7 (Homo sapiens)
# Construct: The degradation activity of compounds on AR-v7 in 22RV1 cells; host or cells: 22RV1 cells
# Sequence (P10275 1-644 isoform P10275-3): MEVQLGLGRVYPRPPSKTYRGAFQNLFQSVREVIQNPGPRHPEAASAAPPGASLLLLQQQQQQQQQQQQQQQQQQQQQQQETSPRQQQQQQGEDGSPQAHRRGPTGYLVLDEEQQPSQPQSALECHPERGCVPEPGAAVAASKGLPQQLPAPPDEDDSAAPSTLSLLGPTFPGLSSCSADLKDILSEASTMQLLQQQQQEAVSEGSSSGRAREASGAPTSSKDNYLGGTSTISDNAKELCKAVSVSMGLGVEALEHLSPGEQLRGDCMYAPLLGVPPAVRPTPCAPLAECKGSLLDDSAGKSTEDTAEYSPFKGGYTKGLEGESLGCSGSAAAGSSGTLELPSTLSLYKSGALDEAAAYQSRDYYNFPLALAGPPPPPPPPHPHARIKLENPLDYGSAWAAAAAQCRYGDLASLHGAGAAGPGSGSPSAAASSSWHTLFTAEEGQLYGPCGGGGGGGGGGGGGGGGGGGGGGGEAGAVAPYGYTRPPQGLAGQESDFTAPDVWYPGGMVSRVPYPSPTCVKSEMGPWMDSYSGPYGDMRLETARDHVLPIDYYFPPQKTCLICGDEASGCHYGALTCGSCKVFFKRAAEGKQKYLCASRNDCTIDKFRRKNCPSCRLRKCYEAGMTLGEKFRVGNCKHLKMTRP
# test.name: Degradation activity on androgen receptor splicing variant AR-v7 in 22RV1 cells (ELISA)
# Type: cell-based
# condition.parameters: AR-v7 degradation in 22RV1 cells, 48 h, numeric values
recorded.metric: DC50

Examples with their reported DC50 follow.
- compound: "CC(C)(c1ccc(OCc2ccnc(NS(C)(=O)=O)n2)cc1)c1ccc(OC2CN(c3ccc4c(c3)C(=O)N(C3CCC(=O)NC3=O)C4=O)C2)cc1 (centres unmarked)"
  recorded.value: "> 5 µM"
- compound: "CC(C)(c1ccc(OCc2ccnc(NS(C)(=O)=O)n2)cc1)c1ccc(OC2CN(CCCCCOCCCCNc3ccc4c(c3)C(=O)N(C3CCC(=O)NC3=O)C4=O)C2)cc1 (centres unmarked)"
  recorded.value: "> 10 µM"
- compound: "CC(=O)c1nccc(COc2ccc(C(C)(C)c3ccc(OCC4CCCN(c5ccc6c(c5)C(=O)N(C5CCC(=O)NC5=O)C6=O)C4)cc3)cc2)n1 (centres unmarked)"
  recorded.value: "> 2.5 µM"
- compound: "CC(C)(c1ccc(OCc2ccnc(NS(C)(=O)=O)n2)cc1)c1ccc(OCC2CCN(C[C@H]3CC[C@H](CN4CCN(c5ccc6c(c5)C(=O)N(C5CCC(=O)NC5=O)C6=O)CC4)CC3)CC2)cc1 (some centres unmarked)"
  recorded.value: "8.76 µM"
- compound: "CC(C)(c1ccc(OCc2ccnc(NS(C)(=O)=O)n2)cc1)c1ccc(OC[C@H]2CC[C@H](COCCCCCNc3ccc4c(c3)C(=O)N(C3CCC(=O)NC3=O)C4=O)CC2)cc1 (some centres unmarked)"
  recorded.value: "5.2 µM"

CC(C)(c1ccc(OCCCCCCCOCCCOCCCNc2ccc3c(c2)C(=O)N(C2CCC(=O)NC2=O)C3=O)cc1)c1ccc(OCc2ccnc(NS(C)(=O)=O)n2)cc1 (centres unmarked) has a reported DC50 of > 10 µM

DC50 in this record for CC(C)(c1ccc(O)cc1)c1ccc(OCCCCCCCCOCCCCNc2ccc3c(c2)C(=O)N(C2CCC(=O)NC2=O)C3=O)cc1 (centres unmarked) : > 2 µM

Query CC(C)(c1ccc(OCCCN2CCN(CC3CCN(CCCNc4ccc5c(c4)C(=O)N(C4CCC(=O)NC4=O)C5=O)CC3)CC2)cc1)c1ccc(OCc2ccnc(NS(C)(=O)=O)n2)cc1 (centres unmarked) yields DC50 of 6.33 µM

Kindly note the recorded DC50 for CC(C)(c1ccc(OCc2ccnc(NS(C)(=O)=O)n2)cc1)c1ccc(OC2CCN(CCCCOCCCCNc3ccc4c(c3)C(=O)N(C3CCC(=O)NC3=O)C4=O)CC2)cc1 (centres unmarked) , which is > 10 µM

DC50 recorded for this compound, CC(C)(c1ccc(OCc2ccnc(NS(C)(=O)=O)n2)cc1)c1ccc(OCC2CCN(CCCOCCCNc3ccc4c(c3)C(=O)N(C3CCC(=O)NC3=O)C4=O)CC2)cc1 (centres unmarked) , is > 10 µM

Record CC(C)(c1ccc(OCCCCOCCCCN2CCC3(CC2)CN(c2ccc4c(c2)C(=O)N(C2CCC(=O)NC2=O)C4=O)C3)cc1)c1ccc(OCc2ccnc(NS(C)(=O)=O)n2)cc1 (centres unmarked) , field DC50: > 10 µM
